# Measured On: 14-3-3ζ full length His-tag (Homo sapiens, UniProt P63104)
# Sequence (P63104 1-245): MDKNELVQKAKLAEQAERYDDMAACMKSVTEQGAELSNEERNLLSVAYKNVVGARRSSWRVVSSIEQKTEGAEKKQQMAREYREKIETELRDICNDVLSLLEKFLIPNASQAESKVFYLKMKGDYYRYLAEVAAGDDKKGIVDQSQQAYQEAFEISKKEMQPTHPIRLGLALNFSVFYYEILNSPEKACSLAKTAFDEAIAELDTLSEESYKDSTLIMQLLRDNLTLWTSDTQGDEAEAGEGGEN
# Procedure Details: biochemical
# Assay type: binding
# Recorded Conditions: BEI = pKd/(MW × 10^–3); pKd from direct FP of FITC-labelled peptides
Measured BEI (binding efficiency index), listed per entry.
Lab note: write the figure by itself, no unit.

Recorded results for 3 compounds are shown here.
Smiles Entry	Measured On	Measured Value
CC(C)C[C@@H]1NC(=O)[C@](C)(NC(=O)CNC(=O)[C@H](CCC(N)=O)NC(=O)COCCOCCNC(=S)Nc2ccc3c(c2)C(=O)OC32c3ccc(O)cc3Oc3cc(O)ccc32)CCCCCCCC[C@@](C)(C(=O)N[C@@H](CC(C)C)C(=O)N[C@@H](CC(=O)O)C(N)=O)NC(=O)[C@H](CC(=O)O)NC1=O	14-3-3ζ full length His-tag (Homo sapiens, UniProt P63104)	2.86
CC(C)C[C@H](NC(=O)[C@H](CC(=O)O)NC(=O)[C@H](CC(C)C)NC(=O)[C@]1(C)CCCCCCCC[C@@](C)(NC(=O)COCCOCCNC(=S)Nc2ccc3c(c2)C(=O)OC32c3ccc(O)cc3Oc3cc(O)ccc32)C(=O)N[C@@H](CC(C)C)C(=O)N[C@@H](CC(=O)O)C(=O)N1)C(N)=O	14-3-3ζ full length His-tag (Homo sapiens, UniProt P63104)	3.70
CC(C)C[C@H](NC(=O)[C@H](CC(=O)O)NC(=O)[C@H](CC(C)C)NC(=O)[C@]1(C)CCCCCCCC[C@@](C)(NC(=O)CNC(=O)[C@H](CCC(N)=O)NC(=O)COCCOCCNC(=S)Nc2ccc3c(c2)C(=O)OC32c3ccc(O)cc3Oc3cc(O)ccc32)C(=O)N[C@@H](CC(C)C)C(=O)N[C@@H](CC(=O)O)C(=O)N1)C(=O)N[C@@H](C)C(N)=O	14-3-3ζ full length His-tag (Homo sapiens, UniProt P63104)	4.07

// switching to the query compound
Exercise: For the record `CC(C)C[C@H](NC(=O)[C@H](CC(=O)O)NC(=O)[C@H](CC(C)C)NC(=O)[C@]1(C)CCCCCCCC[C@@](C)(NC(=O)CNC(=O)[C@H](CCC(N)=O)NC(=O)COCCOCCNC(=S)Nc2ccc3c(c2)C(=O)OC32c3ccc(O)cc3Oc3cc(O)ccc32)C(=O)N[C@@H](CC(C)C)C(=O)N[C@@H](CC(=O)O)C(=O)N1)C(N)=O` , what value of BEI (binding efficiency index) is listed for 14-3-3ζ full length His-tag (Homo sapiens, UniProt P63104)?
Key: 3.66

---

# Procedure Details: physchem
# Recorded Conditions: pH 7.4
Reported Property: chromatographic logD
No unit in the answer, please; the number alone is enough.

Answered examples (3):
Smiles Entry	chromatographic logD
CC(=O)NCC(=O)N[C@]1(C)CCCCCCCC[C@@H](C(=O)N[C@@H](CC(C)C)C(=O)N[C@@H](CC(=O)O)C(=O)N[C@@H](CC(C)C)C(N)=O)NC(=O)[C@H](CC(=O)O)NC(=O)[C@H](CC(C)C)NC1=O	1.01
CC[C@@]1(NC(=O)CNC(C)=O)CCCCCCCC[C@@](C)(C(=O)N[C@@H](CC(C)C)C(=O)N[C@@H](CC(=O)O)C(=O)N[C@@H](CC(C)C)C(N)=O)NC(=O)[C@H](CC(=O)O)NC(=O)[C@H](CC(C)C)NC1=O	1.33
CC(=O)NCC(=O)N[C@@H]1CCCCCCCC[C@@H](C(=O)N[C@@H](CC(C)C)C(=O)N[C@@H](CC(=O)O)C(=O)N[C@@H](CC(C)C)C(N)=O)NC(=O)[C@H](CC(=O)O)NC(=O)[C@H](CC(C)C)NC1=O	0.63

Below: the item to evaluate.
Exercise: Returns the measured chromatographic logD for the input compound. Input: `CC(=O)N[C@@H](CCC(N)=O)C(=O)NCC(=O)N[C@]1(C)CCCCCCCC[C@@](C)(C(=O)N[C@@H](CC(C)C)C(=O)N[C@@H](CC(=O)O)C(=O)N[C@@H](CC(C)C)C(=O)N[C@@H](C)C(=O)N[C@@H](CO)C(N)=O)NC(=O)[C@H](CC(=O)O)NC(=O)[C@H](CC(C)C)NC1=O`
Key: 1.15
